Exercise: for every item that follows, state its recorded ELISA data.
TARGET_DESC: T1, CD81 (UniProt P60033 1-236, limits assumed)
T1 construct: whole, on cells; also called CD81 receptor
T1 sequence (looked up): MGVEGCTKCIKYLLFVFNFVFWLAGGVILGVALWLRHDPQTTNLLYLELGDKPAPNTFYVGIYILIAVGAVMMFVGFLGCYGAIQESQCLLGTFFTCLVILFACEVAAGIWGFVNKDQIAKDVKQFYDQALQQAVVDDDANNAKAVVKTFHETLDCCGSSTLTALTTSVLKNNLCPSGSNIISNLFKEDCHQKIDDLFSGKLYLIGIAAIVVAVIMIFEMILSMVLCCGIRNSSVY
RUN_DESCRIPTION: cell ELISA;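 further: antibody binding to HuH7 cells expressing CD81 versus a CD81-negative HuH7 control line, bound antibody detected by secondary reagent, absorbance at 450 nm with 620 nm reference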
Please reply with the value in numeric form only.

Asked: Please indicate ELISA data recorded for CD81K13 HC 03-hVH_1_69 / LC 1c-hVK_3_15 (antibody, V domains shown, human constant region) VH: QVQLVQSGAEVKKPGSSVKVSCKASGFNFKDSYLHWVRQAPGQGLEWMGRIDTGNGNVKYAQKFQGRVTITADESTSTAYMELSSLRSEDTAVYYCAPYGYGFHSWGQGTLVTVSS VL: EIVMTQSPATLSVSPGERATLSCRASENIYRTLAWYQQKPGQAPRLLIYGATTLADGIPARFSGSGSGTEFTLTISSLQSEDFGVYYCQHFWGTPWTFGQGTKVEIK
Given back: 0.252

Asked: Please indicate ELISA data recorded for CD81K13 HC 03-hVH_1_69 / LC 01-hVK_3_15 (antibody, V domains shown, human constant region) VH: QVQLVQSGAEVKKPGSSVKVSCKASGFNFKDSYLHWVRQAPGQGLEWMGRIDTGNGNVKYAQKFQGRVTITADESTSTAYMELSSLRSEDTAVYYCAPYGYGFHSWGQGTLVTVSS VL: EIVMTQSPATLSVSPGERATLSCRASENIYRTLAWYQQKPGQAPRLLIYGATTRATGIPARFSGSGSGTEFTLTISSLQSEDFGVYYCQHFWGTPWTFGQGTKVEIK
Given back: 0.649

Asked: Please indicate ELISA data recorded for CD81K13 HC 05-hVH_1_69 / LC 05-hVK_1_39 (antibody, V domains shown, human constant region) VH: QVQLVQSGAEVKKPGSSVKVSCKASGFNFKDSYLHWVRQAPGQGLEWMGRIDTGNGNVKFDPKFQGRVTITTDESTSTAYMELSSLRSEDTAVYYCVPYGYGFHSWGQGTLVTVSS VL: DIQMTQSPSSLSASVGDRVTITCRASENIYRTLAWYQQKPGKAPKLLIYAATTLASGVPSRFSGSGSGTDFTLTISSLQPEDFATYYCQHFWGTPWTFGQGTKVEIK
Given back: 0.91
